Reported growth is given for each of the following compounds.
# Tested on: SK-MEL-28 melanoma
# assayProcedure: NCI-60 one-dose screen, 48 h (100 = growth as untreated, 0 = no growth, -100 = all killed)
# cond: 10 µM unless noted
# Description: Growth inhibition of the SK-MEL-28 human tumor cell line is measured as a screen for anti-cancer activity. Cells are grown in 96 well plates and exposed to the test compound for 48 hours. Compounds are tested at a single concentration, which is 10^-5 M for most compounds. The reported endpoint is percent growth (GI% or GIPRCNT), where numbers from 0 - 100% represent growth inhibition, and numbers from -100% - 0 represent cell death. For example, a value of 40 represents 60% growth inhibition. […]
Compounds without any hit were thinned out: in the full panel of roughly 83,000, 20% have a hit.
Numbers only here, please. The scale is %.

Examples from the recorded data:
compound | endpointUnit | growth
NC(=S)N/N=C\c1nccc2c(N)cccc12 | % | 44.6
O=C(Nc1ccc(Cl)c(Cl)c1)Nc1ccccc1O | % | 107
OC(CSc1ccccc1)CN1CCN(c2ccc(Cl)cc2)CC1 (centres undefined) | % | 110

Note down growth recorded for "Nc1ccc(C(=O)/C=C/c2ccccc2)cc1"
113

Note down growth recorded for "Oc1ccc2c(c1)CCc1ccccc1-2"
105

Note down growth recorded for COc1ccc(C(OCC2OC(n3ccc(NC(=O)c4ccccc4)nc3=O)C(O)C2O)(c2ccccc2)c2ccccc2)cc1 (centres undefined)
55.9
